# System: RARa homodimer (NR concentration 270 nM)
# METHOD DESCRIPTION: PBM binding z-score (relative to random genomic background probes); higher = stronger binding; sequences stand for … in GC…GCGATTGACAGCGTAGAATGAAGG
ASSAY READOUT: PBM binding z-score
Form: value (number only, do not type unit).

Known results for sequences:
RARa homodimer (NR concentration 270 nM) PBM binding z-score of `TCATATACGTAATACAGGTGAAAGTCGGCATCTA` is 1

For `TCATATAGCTAAATGCTAGGTGAAAGTCCGATCT` on RARa homodimer (NR concentration 270 nM), measured PBM binding z-score was -0.0788

Here `CCGACTGGGGCATAAGGTTACCATCAGCCAGCCC` was tested on RARa homodimer (NR concentration 270 nM), and its PBM binding z-score came to -0.135

Further cases:
Hey, RARa homodimer (NR concentration 270 nM) data for `TCATTTAGGTAAAGGTGAAAGTCGAACGATATGA` : PBM binding z-score came out at 1.42

Field PBM binding z-score (RARa homodimer (NR concentration 270 nM)), entry `CCTACTGGGCCACAAAGGTCATTGATGCCGATAA` : 1.78

Record `CGAACTAAGTCAGAACAGGACAGTGAAGGATGAT` has RARa homodimer (NR concentration 270 nM) PBM binding z-score equal to 0.452

Let me check: `GCTTGTAGATCAAGGTTCAGAAAGACTAAGCTAA` , system RARa homodimer (NR concentration 270 nM), measured PBM binding z-score is -0.997

The sequence `TCGAGTAGGTTAGTCGGGGCAGTCAGCCAACATA` on RARa homodimer (NR concentration 270 nM): PBM binding z-score was -0.469

Record `ACAGACAGGTGGTGAAGGTAACTCAGGCTATCAT` has RARa homodimer (NR concentration 270 nM) PBM binding z-score equal to 0.517

The recorded PBM binding z-score with RARa homodimer (NR concentration 270 nM) for `AGAATGAGGTTATTAAGATCCGGGAATTGCGGTC` was -0.0311

Note to self: PBM binding z-score of `ACTATTAGTTGAGACGACGGCAACCGATAGGTTG` with RARa homodimer (NR concentration 270 nM) was 0.521

Per the reported RARa homodimer (NR concentration 270 nM) data, `CTACCTAGGTGAACAAGGTCGTTGATTACTATTC` has PBM binding z-score of 0.759

====

# System: FXR:RXRa (NR concentration 270 nM, RXRa partner concentration 90 nM)
# METHOD DESCRIPTION: PBM binding z-score (relative to random genomic background probes); higher = stronger binding; sequences stand for … in GC…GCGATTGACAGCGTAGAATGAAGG
# cutoff 3 applies to PBM binding z-score; >= gives yes, < gives no

Field: example entries. Status: answers known.
Query: Is it the case that `AGTCAAAGTTCAGGACGAGGTAACGAAAAGCACG` has PBM binding z-score reaching or exceeding 3?
Response: yes

Query: Assess whether reported PBM binding z-score for `TGAATGGGGTTATAAGATCAGGGAACGTTGCAAA` sits at 3 or higher.
Response: yes

Query: State whether the measured PBM binding z-score reaches 3, counting equality as reaching it, for `GCTGCTAGCTCAACTGATGGTCAGCTAAAGCTCG`
Response: no

Query: Hello, I need to know if `ACTCGGAGGACAAAGGTCAGCGCTACGCCAGTGA` has measured PBM binding z-score not below 3. Thanks!
Response: yes

Query: Evaluate `TCGAGTAGGTTAGTCCGGGCATTCAGCCAACATA` : PBM binding z-score at minimum 3?
Response: no

Query: Check if PBM binding z-score >= 3 (inclusive). Item: `CCTGCTAGGTCGATGGTCAGCTAAAGCAGCTCGC`
Response: no

Query: Is reported PBM binding z-score greater than or equal to 3 here: `CCAGACAGGTGAGAAGATAACTCAGCCTCGATTA`
Response: no

Query: Identify whether the reported PBM binding z-score of the following sequence is 3 or greater: `CGTCCAAGCTCAGAGAGGTCAGTGAATGCCGAGT`
Response: no

Query: Does the sequence `CGAACTAGGTCATTGACAGGACTGTGAATAGTAA` have recorded PBM binding z-score that is 3 or more?
Response: yes

Query: PBM binding z-score >= 3 for `GCTAGTTGGTCAGTAAAACGTCACACACCGGTCG` ?
Response: no

Others:
Query: Does the sequence `ATATGTAGGTTAGCTTGGGTCATTCAGACTAGGC` have recorded PBM binding z-score that is 3 or more?
Response: no

Query: Hi, just wondering whether `CCTATTAGTTGACCATAAGGGCATCCGAAGCTCG` shows PBM binding z-score of 3 or higher.
Response: no

Query: Hi team, for `CCTATCAGGCCAATCTGGGTCACTCAAGGCTTGA` , is the recorded PBM binding z-score at or above 3?
Response: no

Query: Is PBM binding z-score at least 3? Consider `CCTATTAGTTGACCATAAGGACAACCGAAGCTCG`
Response: no

Query: Does the sequence `ATATGTAGGTTACATCCGGGTGATTCAGGCTATG` have recorded PBM binding z-score that is 3 or more?
Response: no

Query: Does PBM binding z-score meet or surpass 3 for `GCTTGAAGATCAAGGTTAAGAAAGACTAAGCTAA` ?
Response: no

Query: # bool: PBM binding z-score of `GCTTACGGGTCAAAGGTTATAGAATGAATAGAAT` >= 3
Response: yes

Query: Test whether the sequence `AGAACGAGGGCAAAGAGTTGATAGCACGGGTGGC` records PBM binding z-score of 3 or higher.
Response: no

Query: Quick check: does `GCTAGCAGGCCATTTGGGTAACTCAATGACGGGC` have PBM binding z-score greater than or equal to 3?
Response: no

Query: Test whether the sequence `TCTAGTTGGTCACGGAGGTGACACACGACGGGTA` records PBM binding z-score of 3 or higher.
Response: no

Query: Hi team, for `CCTACTGTGCCACGAAAGGTCATTGATTCAGTGA` , is the recorded PBM binding z-score at or above 3?
Response: yes
